- Subject Of Test: Voltage-gated potassium channel subunit beta-2 (Rattus norvegicus)
- Experiment Notes: enhancers of rat Kvbeta2 NADPH turnover – biochemical, NADPH fluorescence, primary screen (AID 623);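 further: fluorescence intensity change per second fitted from 20 to 320 s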
- Settings: Recombinant KvBeta, NADPH fluorescence decrease slope, 10 min; at 10 µM; active compounds read low
So I've got a bunch of compounds here, and I need their NADPH fluorescence slope values.
Numbers only.

Example cases with answers are listed next.
• CCOC(=O)CNC(=O)Cn1cnc2c(nnn2-c2cccc(Cl)c2)c1=O = 4.8e-05
• CCc1nc2c(cnn2-c2ccc(Cl)cc2)c(=O)n1-c1ccc2c(c1)OCCO2 = -1.7e-05
• CC(C(=O)N1c2ccc(F)cc2CCC1C)N1C(=O)c2ccccc2C1=O (stereo not drawn) = -4.6e-05
• O=C(NCCCN1CCCC1=O)c1cncc(Br)c1 = -9.4e-05

Hi! Can you tell me NADPH fluorescence slope for each of these compounds?
1. COc1ccccc1N1CCN(C(=O)c2ccc3nc(-c4ccco4)c(-c4ccco4)nc3c2)CC1
2. CSc1nnc2n(CCc3ccccc3)c(=O)c3c4c(sc3n12)CCCC4

Outgoing:
["3.6e-06", "-2.9e-05"]

Hi! Can you tell me NADPH fluorescence slope for each of these compounds?
1. Cc1ccc(NC(=O)C2CCCN2C(=O)Oc2ccccc2)cc1 (stereo not drawn)
2. O=C(Cc1c(O)c2ccccc2[nH]c1=O)NCc1ccc(F)cc1
3. CCOC(=O)CSc1nc2cc(C(=O)NCc3ccco3)ccc2c(=O)n1-c1ccc(F)cc1
4. O=C(NC1CCCCC1)C1CC(O)CN1C(=O)OCc1ccccc1 (stereo not drawn)

Outgoing:
["-6.8e-06", "-2e-05", 0.000117, "-7.5e-06"]

====

- Subject Of Test: Voltage-gated potassium channel subunit beta-2 (Rattus norvegicus) (UniProt P62483)
- Sequence (P62483 whole entry, looked up): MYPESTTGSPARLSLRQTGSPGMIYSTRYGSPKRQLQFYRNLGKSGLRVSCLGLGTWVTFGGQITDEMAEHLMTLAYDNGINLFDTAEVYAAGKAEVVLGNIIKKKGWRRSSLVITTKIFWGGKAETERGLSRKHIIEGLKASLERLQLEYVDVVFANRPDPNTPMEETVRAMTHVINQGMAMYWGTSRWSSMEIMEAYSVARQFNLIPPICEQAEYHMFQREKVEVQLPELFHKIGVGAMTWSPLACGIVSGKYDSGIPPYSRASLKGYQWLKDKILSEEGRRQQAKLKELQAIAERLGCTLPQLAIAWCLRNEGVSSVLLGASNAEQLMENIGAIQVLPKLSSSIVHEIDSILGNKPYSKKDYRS
- Experiment Notes: enhancers of rat Kvbeta2 NADPH turnover – biochemical, NADPH fluorescence, primary screen (AID 623);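 further: fluorescence intensity change per second fitted from 20 to 320 s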
- Settings: Recombinant KvBeta, NADPH fluorescence decrease slope, 10 min; at 10 µM; active compounds read low
Experimental Readout: NADPH fluorescence slope
Give bare numbers.

Example cases with answers are listed next.
• COCCNC(=O)C(C)OC(=O)c1nsc(Cl)c1Cl (stereo unspecified) = 1e-05
• CCNc1oc(COc2cccc(C)c2)nc1C#N = -5e-05
• CC(=O)OCC(=O)[C@@]1(O)CC[C@H]2[C@@H]3CCC4=CC(=O)C=C[C@]4(C)[C@H]3[C@@H](O)C[C@@]21C = 4.9e-06
• O=C(NCc1ccco1)C1CCN(C(=O)c2cc3sccc3n2Cc2ccc(F)cc2)CC1 = -4.5e-05
• Cc1nnc(SCc2cnc(-c3ccccc3)o2)[nH]c1=O = -1.9e-05
• COC(=O)Cc1c(C)nc2nc(-c3ccco3)[nH]n2c1=O = -4e-05

Hi! Can you tell me NADPH fluorescence slope for each of these compounds?
1. O=C(c1cccn2c(=O)c3cc(Cl)ccc3nc12)N1CCOCC1
2. COc1ccccc1NC(=O)C1=C(C)Nc2ncnn2C1c1ccc(C)o1 (stereo unspecified)
3. CN(CCOC(=O)c1cccc(Br)c1)C(C)(C)C
4. Cc1csc(NC(=O)c2cccc(S(=O)(=O)N3CCCCC3)c2)n1
5. COc1ccc(-c2cnc(SCC(=O)Nc3ccc4c(c3)OCO4)n2Cc2ccco2)cc1
6. CCn1c(=O)cc(SCC(=O)Nc2cccnc2)c2ccccc21
7. O=C(CN1C(=O)c2cccc3cccc1c23)Nc1ccccc1C(=O)NCc1ccco1
8. CCOC(=O)CNC(=O)c1c(C)nn(-c2ccccc2)c1Cl

Outgoing:
8.6e-06
-0.000118
-4e-05
-3e-05
-2.5e-05
2.2e-05
-5.3e-06
-5.1e-06

Hi! Can you tell me NADPH fluorescence slope for each of these compounds?
1. Cc1ccccc1NC(=O)C1Cc2ccccc2C(=O)O1 (stereo unspecified)
2. Cc1ccccc1S(=O)(=O)Cc1ccc(C(=O)NCc2cccnc2)o1
3. Cc1c(C(=O)O)oc2ccc(S(=O)(=O)NCCC3=CCCCC3)cc12
4. COc1ccc(-c2noc(COc3ccc4ccccc4c3Br)n2)cc1OC
5. c1ccc(-c2n[nH]c3ccccc23)cc1
6. CCCn1c(NC(=O)C2COc3ccccc3O2)nc2ccccc21 (stereo unspecified)
7. COc1ccc(CNc2nc(SCC(=O)NCc3ccco3)nc3ccccc23)cc1

Outgoing:
-3.3e-05
4e-05
4.4e-05
-3e-05
-5.6e-05
0.000114
9.7e-05

Hi! Can you tell me NADPH fluorescence slope for each of these compounds?
1. CCCCc1oc2ccccc2c1C(=O)c1cc(I)c(OCCN(CC)CC)c(I)c1
2. Cc1cccc(N2CCN(C(=O)c3cc4c(=O)[nH]c5ccccc5c4n3C)CC2)c1C

Outgoing:
1: -4.3e-05; 2: -2.8e-05

Hi! Can you tell me NADPH fluorescence slope for each of these compounds?
1. Cc1noc(C)c1S(=O)(=O)N1CCC(C(=O)Nc2ccccn2)CC1
2. O=C(NC1CCCc2ccccc21)C1CCN(S(=O)(=O)c2cnc[nH]2)CC1 (stereo unspecified)
3. CCOC(=O)NC(c1ccccc1)C1CCCCC1=O (stereo unspecified)

Outgoing:
1. 3.5e-05
2. -2.6e-05
3. 1e-05

Hi! Can you tell me NADPH fluorescence slope for each of these compounds?
1. Cc1ccc(NC(=O)CSc2nnc(CCCCCNC(=O)OC(C)(C)C)o2)c(C)c1
2. COc1ccc(-n2ncc3c(NCc4ccc5c(c4)OCO5)ncnc32)cc1
3. Cc1ccccc1OCCN1C(=O)NC2(CCc3ccccc32)C1=O (stereo unspecified)

Outgoing:
["-4e-05", "-4.4e-05", "-1.6e-05"]

Hi! Can you tell me NADPH fluorescence slope for each of these compounds?
1. NS(=O)(=O)c1ccc(NCc2c(F)cccc2Cl)cc1
2. CCn1c(CNc2ccc(C)cc2)nnc1SCC(=O)NCc1ccccc1
3. CCOCCCNCC(=O)N1CCN(S(=O)(=O)c2ccc(C)cc2)CC1
4. CCNC(=O)C1CC(=O)N(Cc2ccc3c(c2)OCO3)C(=Nc2ccc(OCC)cc2)S1 (stereo unspecified)
5. Cc1cc(C)n2nc3nc(N4CCCCC4)nc(-c4ccco4)c3c2n1
6. O=C(NCc1ccco1)C1CC(=O)N(c2ccc(F)cc2)C1 (stereo unspecified)

Outgoing:
1: -0.000161; 2: 0.000173; 3: 1.2e-05; 4: 1.7e-05; 5: 1e-05; 6: -2e-05

Hi! Can you tell me NADPH fluorescence slope for each of these compounds?
1. CCSc1nc(C)nc2c1oc1ccccc12
2. CC(=O)Oc1ccc(C(c2ccc(OC(C)=O)cc2)c2ccccn2)cc1
3. CCCCn1c(SCc2cccnc2)nc2c1c(=O)n(C)c(=O)n2C
4. COc1cc(NC(=O)c2cc(OC)c(OC)c(OC)c2)c(OC)cc1NC(=O)CN1CCCCC1

Outgoing:
1: -7.5e-05; 2: -2.1e-05; 3: -3.3e-05; 4: -3.3e-05

Hi! Can you tell me NADPH fluorescence slope for each of these compounds?
1. O=C(Nc1ccc2nn(-c3ccccc3)nc2c1)c1ccc(Br)o1
2. Cc1ccc(C)c(NC(=O)C2CCC(C)(C(=O)O)C2(C)C)c1 (stereo unspecified)
3. CCn1c(SCC(N)=O)nc2c1c(=O)n(C)c(=O)n2C
4. S=c1nc(C2CC2)[nH]c2ccccc12
5. CCOC(=O)CSc1nc(C)c(C(=O)OCC)s1
6. O=C(CSc1ncnc2sc3c(c12)CCCCC3)NCc1ccco1
7. CCSc1nc(-c2ccc(OC)cc2)ccc1C#N

Outgoing:
1. -2.9e-05
2. 2.7e-06
3. 2.5e-05
4. -4.4e-05
5. -1.9e-05
6. -1.4e-05
7. -1.9e-05

====

- Subject Of Test: Muscarinic acetylcholine receptor M4 (Homo sapiens)
- Experiment Notes: M4-linked GIRK flux change, two-sided – cell-based, HEK293 M4/GIRK, thallium flux, BTC-AM, M4 allosteric agonist project, primary screen (AID 625);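 further: thallium influx through GIRK channels coupled to M4 in HEK293 cells with BTC-AM dye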
- Settings: at 10 µM, actives lie on both sides
Tag: condition met if measured fluorescence slope is not below 0.006, condition not met if it is.

Incoming: Determine whether this compound has fluorescence slope no lower than 0.006: `Cc1ccc(-c2nn(C)c(=O)c3ccccc23)cc1S(=O)(=O)N1CCOCC1`
Outgoing: condition not met

Incoming: Determine whether this compound has fluorescence slope no lower than 0.006: `CCS(=O)(=O)N1CCC(C(=O)NCc2cccs2)CC1`
Outgoing: condition met

Incoming: Determine whether this compound has fluorescence slope no lower than 0.006: Cc1ccc(CNC(=O)C2CCCN(S(=O)(=O)c3cccnc3)C2)cc1 (stereo unspecified)
Outgoing: condition not met

====

- Experiment Notes: reduction of polyQ htt aggregates in cells – imaging, exon1htt(103Q)mCFP cells, high-content imaging, primary screen (AID 483);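 further: compound exposure lasted 3 days before fixation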
- Settings: exon1htt(103Q)mCFP cell line, aggregate imaging, at 2 µM; active compounds read high
Calls of active or inactive are those of the source.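 Rule for the calls: active = visual image review flags a hit and inhibition of aggregation exceeds 20%; inconclusive = visual hit but inhibition at or below 20%; inactive = no hit on visual image review.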
Experimental Readout: inhibition of aggregation

• Nc1nonc1-c1noc(CCCCCN2C(=O)c3ccccc3C2=O)n1 = -10.5% (inactive)
• Cc1cccc(-c2noc(CCC(=O)Nc3ccccc3)n2)c1 = 7.6% (inactive)

Hi! Can you tell me inhibition of aggregation for each of these compounds?
1. Cc1cc(-c2ccccc2)c2nncn2n1
2. COc1ccc(C2C(C(=O)c3sc(C)nc3C)=C(O)C(=O)N2CCN2CCOCC2)cc1 (centres undefined)

Outgoing:
["-3% (inactive)", "0.7% (inactive)"]
